For each record, write down the corresponding Kp uu.
assay: Blood brain barrier penetration assay in rats (short oral absorption model with blood, plasma and brain binding); format: in vivo; conditions: male, Han Wistar, brain, Table 5, rat, read-out: Kp,uu,brain
Give bare numbers.

For every item in the list below, what is its measured Kp uu?
1. COc1cc(O[C@H]2CCNCC2(F)F)c2c(Nc3ccc(Oc4ccn5ncnc5c4)c(C)c3)ncnc2c1
2. Cc1cc(Nc2ncnc3ccc(NC4=NC(C)(C)CO4)cc23)ccc1Oc1ccn2ncnc2c1 [ONT380, reference compound]

Response given:
[0.12, 0.016]

* * *

assay: Clinical plasma and CSF PK in HER2+ MBC patients; type: in vivo, human; details: human, CSF, oral; patients with BM; read-out: averaged Kpuu,CSF
Test Readout: Kp uu

Compound	Kp uu
COc1cc(O[C@H]2CCNCC2(F)F)c2c(Nc3ccc(Oc4ccn5ncnc5c4)c(C)c3)ncnc2c1	~0.78

// next item, Kp uu requested
Kp uu measured on COc1cc(O[C@H]2CCN(C)CC2(F)F)c2c(Nc3ccc(Oc4ccn5ncnc5c4)c(C)c3)ncnc2c1 (single isomer, unassigned) = ~1.82
